Molecular target: human DYRK1A (Homo sapiens, UniProt Q13627)
Construct: Recombinant full-length DYRK1A (expressed in E. Coli cells with an N-terminal GST tag); GST (N); purchased SignalChem D09-10G; host or cells: E. coli
Assay: DYRK1A enzyme assay (ADP-Glo)
Format: biochemical
pIC50: −log10 of the molar value.
PROPERTY_MEASURED: pIC50

Exercise: Give the measured pIC50 for CC(=O)N(C1=N/C(=C\c2ccc3c(c2)OCO3)C(=O)N1)c1ccccc1 [Example 5]
Key: > 7.00

###

Biological target: human CK2a2 (CSNK2a2) (Homo sapiens, UniProt P19784)
Construct: Recombinant human CK2a2 (CSNK2a2) (full length); GST (N); purchased SignalChem C71-10G; host or cells: Sf9 insect cells
Sequence (P19784 whole entry): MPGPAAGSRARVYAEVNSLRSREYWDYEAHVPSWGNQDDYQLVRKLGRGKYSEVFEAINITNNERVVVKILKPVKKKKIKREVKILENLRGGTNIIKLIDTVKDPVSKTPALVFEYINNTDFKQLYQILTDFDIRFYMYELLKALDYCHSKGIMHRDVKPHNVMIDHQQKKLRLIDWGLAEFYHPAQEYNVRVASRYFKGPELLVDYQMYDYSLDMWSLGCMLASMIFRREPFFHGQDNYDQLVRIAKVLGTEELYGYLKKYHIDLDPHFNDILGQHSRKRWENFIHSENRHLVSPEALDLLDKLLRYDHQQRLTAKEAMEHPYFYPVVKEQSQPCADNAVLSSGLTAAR
Assay: CK2a2 (CSNK2a2) enzyme assay (ADP-Glo)
Type: biochemical
Conditions: ADP-Glo, ATP 15 μM; read-out: CK2 alpha 2 IC50
pIC50: −log10 of the molar value.
PROPERTY_MEASURED: pIC50

Exercise: Answer with the recorded pIC50 of O=C1NC(Nc2ccc3nccnc3c2)=N/C1=C\c1ccc2ncsc2c1 [Example 82] only.
Key: > 7.00

Exercise: Give the reported value of pIC50 for this record: CN(C1=N/C(=C\c2ccc3c(c2)OCO3)C(=O)N1)c1ccc(N)cc1 [Example 37]
Key: 6.00 to 7.00

Exercise: Return the recorded pIC50 value; entry: O=C1/C(=C/c2ccc3ncsc3c2)N=C(N(Cc2ccccc2)c2ccccc2)N1Cc1ccccc1 [Example 42]
Key: < 5.00

Exercise: Consider the molecule COc1ccc(N(C)C2=N/C(=C\c3ccc4ncsc4c3)C(=O)N2)cc1 [Example 38] . State its measured pIC50.
Key: 6.00 to 7.00
